- System: PC3
- measurement.notes: PC3 proliferation
- Type: cell-based
- test.conditions: Homo sapiens, PC-3; PC3 cell line (compounds before 438); read-out: PC3 proliferation (nM)*
Recorded measurements of IC50, one per entry

Before answering, review these 5 worked examples.
Nc1nc2ccc(-c3ccc4nccc(-c5ccncc5)c4c3)cc2o1 [Compound 4] ... < 100 nM
Nc1nc2cc(-c3ccc4ncc(-c5ccncc5)n4n3)ccc2o1 [Compound 10] ... < 1000 nM
CC(=O)Nc1nc2ccc(-c3ccc4nccc(-c5ccncc5)c4c3)cc2s1 [Compound 2] ... < 10000 nM
Nc1nc2cc(-c3ccc4ncn(-c5ccccc5)c4c3)ccc2o1 [Compound 11] ... > 10000 nM
Cn1c(=O)n(-c2ccc(C(C)(C)C#N)cc2)c2c3cc(-c4ccc5oc(N)nc5c4)ccc3ncc21 [Compound 7] ... < 100 nM

Enquiry: Find IC50 (PC3) for the entry Nc1nc2cc(-c3ccc4ncc(-c5ccncc5)n4c3)ccc2o1 [Compound 6]
Return: < 10000 nM
